System: TTR
protocol_notes: TTR editing in primary human hepatocytes transfected with Spy Cas9 mRNA and dgRNAs (Table 9)
Assay type: cell-based
protocol_conditions: dgRNA co-transfected with Spy Cas9 mRNA (SEQ ID NO:2)
// Avg % Deletion lookup, one value per entry

See these solved cases before continuing.
[
  {
    "biosequence": "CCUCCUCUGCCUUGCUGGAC (tested as dual guide RNA, chemistry not given here) [CR003336]",
    "measurement_kind": "Avg % Deletion",
    "observed_value": "0.80%"
  },
  {
    "biosequence": "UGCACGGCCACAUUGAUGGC (tested as dual guide RNA, chemistry not given here) [CR003349]",
    "measurement_kind": "Avg % Deletion",
    "observed_value": "1.70%"
  },
  {
    "biosequence": "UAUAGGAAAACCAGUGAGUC (tested as dual guide RNA, chemistry not given here) [CR005305]",
    "measurement_kind": "Avg % Deletion",
    "observed_value": "1.60%"
  },
  {
    "biosequence": "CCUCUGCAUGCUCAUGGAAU (tested as dual guide RNA, chemistry not given here) [CR003370]",
    "measurement_kind": "Avg % Deletion",
    "observed_value": "0.50%"
  },
  {
    "biosequence": "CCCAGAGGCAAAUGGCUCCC (tested as dual guide RNA, chemistry not given here) [CR003355]",
    "measurement_kind": "Avg % Deletion",
    "observed_value": "1.63%"
  }
]

Task: Read off the recorded Avg % Deletion for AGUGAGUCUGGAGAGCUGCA (tested as dual guide RNA, chemistry not given here) [CR003359]
Output: 7.33%
